# method: Solubility of select steviol glycosides at room temperature
# Type: physicochemical
# conditions_used: in water, some species may not be completely pure
test_readout: Solubility (% wt %)
Quick note: give the figure in % wt %, leave out the unit.

Sample answers from the record:
[[record]]
compound = "C=C1C[C@@]23CC[C@H]4[C@@](C)(CCC[C@@]4(C)C(=O)O[C@@H]4O[C@H](CO)[C@@H](O)[C@H](O[C@@H]5O[C@H](CO)[C@@H](O)[C@H](O)[C@H]5O)[C@H]4O[C@@H]4O[C@H](CO)[C@@H](O)[C@H](O)[C@H]4O)[C@@H]2CC[C@]1(O[C@@H]1O[C@H](CO)[C@@H](O)[C@H](O[C@@H]2O[C@H](CO)[C@@H](O)[C@H](O)[C@H]2O)[C@H]1O[C@@H]1O[C@H](CO)[C@@H](O)[C@H](O)[C@H]1O)C3 [Reb M, rebaudioside M]"
unit_symbol = "% wt %"
recorded_measurement = 0.05

[[record]]
compound = "C=C1C[C@@]23CC[C@H]4[C@@](C)(CCC[C@@]4(C)C(=O)O[C@@H]4O[C@H](CO)[C@@H](O)[C@H](O)[C@H]4O[C@@H]4O[C@H](CO)[C@@H](O)[C@H](O)[C@H]4O)[C@@H]2CC[C@]1(O[C@@H]1O[C@H](CO)[C@@H](O)[C@H](O[C@@H]2O[C@H](CO)[C@@H](O)[C@H](O)[C@H]2O)[C@H]1O[C@@H]1O[C@H](CO)[C@@H](O)[C@H](O)[C@H]1O)C3 [Reb D, rebaudioside D]"
unit_symbol = "% wt %"
recorded_measurement = 0.10

[[record]]
compound = "C=C1C[C@@]23CC[C@H]4[C@@](C)(CCC[C@@]4(C)C(=O)O[C@@H]4O[C@H](CO)[C@@H](O)[C@H](O)[C@H]4O)[C@@H]2CC[C@]1(O[C@@H]1O[C@H](CO)[C@@H](O)[C@H](O[C@@H]2O[C@H](CO)[C@@H](O)[C@H](O)[C@H]2O)[C@H]1O[C@@H]1O[C@H](CO)[C@@H](O)[C@H](O)[C@H]1O)C3 [Reb A hydrate, rebaudioside A]"
unit_symbol = "% wt %"
recorded_measurement = 0.10

[[record]]
compound = "C=C1C[C@@]23CC[C@H]4[C@@](C)(CCC[C@@]4(C)C(=O)O[C@@H]4O[C@H](CO)[C@@H](O)[C@H](O)[C@H]4O)[C@@H]2CC[C@]1(O[C@@H]1O[C@H](CO)[C@@H](O)[C@H](O[C@@H]2O[C@H](CO)[C@@H](O)[C@H](O)[C@H]2O)[C@H]1O[C@@H]1O[C@H](CO)[C@@H](O)[C@H](O)[C@H]1O)C3 [Reb A, rebaudioside A]"
unit_symbol = "% wt %"
recorded_measurement = 0.46

[[record]]
compound = "C=C1C[C@@]23CC[C@H]4[C@@](C)(CCC[C@@]4(C)C(=O)O[C@@H]4O[C@H](CO)[C@@H](O)[C@H](O)[C@H]4O)[C@@H]2CC[C@]1(O[C@@H]1O[C@H](CO)[C@@H](O)[C@H](O)[C@H]1O[C@@H]1O[C@H](CO)[C@@H](O)[C@H](O)[C@H]1O)C3 [Stevioside, stevioside]"
unit_symbol = "% wt %"
recorded_measurement = 0.44


Q) May I ask what Solubility has been recorded for C=C1C[C@@]23CC[C@H]4[C@@](C)(CCC[C@@]4(C)C(=O)O[C@@H]4O[C@H](CO)[C@@H](O)[C@H](O)[C@H]4O)[C@@H]2CC[C@]1(O[C@@H]1O[C@H](CO)[C@@H](O)[C@H](O[C@@H]2O[C@H](CO)[C@@H](O)[C@H](O)[C@H]2O)[C@H]1O[C@@H]1O[C@H](CO)[C@@H](O)[C@H](O)[C@H]1O)C3 [Reb A anhydrous, rebaudioside A] ?
A) 0.80

Q) May I ask what Solubility has been recorded for C=C1C[C@@]23CC[C@H]4[C@@](C)(CCC[C@@]4(C)C(=O)O[C@@H]4O[C@H](CO)[C@@H](O)[C@H](O)[C@H]4O)[C@@H]2CC[C@]1(O[C@@H]1O[C@H](CO)[C@@H](O)[C@H](O[C@@H]2O[C@H](CO)[C@@H](O)[C@H](O)[C@H]2O)[C@H]1O[C@@H]1O[C@H](CO)[C@@H](O)[C@H](O)[C@H]1O)C3 [Reb A 97%, rebaudioside A] ?
A) 0.80
